assayed-target: Human full-length diacylglycerol:acylCoA acyltransferase 1 (DGAT-1) (Homo sapiens, UniProt O75907)
Construct: Human full-length diacylglycerol:acylCoA acyltransferase 1 (DGAT-1) was expressed in Sf9 insect cells; made in house; host or cells: Sf9 insect cells (baculovirus)
Sequence (O75907 whole entry): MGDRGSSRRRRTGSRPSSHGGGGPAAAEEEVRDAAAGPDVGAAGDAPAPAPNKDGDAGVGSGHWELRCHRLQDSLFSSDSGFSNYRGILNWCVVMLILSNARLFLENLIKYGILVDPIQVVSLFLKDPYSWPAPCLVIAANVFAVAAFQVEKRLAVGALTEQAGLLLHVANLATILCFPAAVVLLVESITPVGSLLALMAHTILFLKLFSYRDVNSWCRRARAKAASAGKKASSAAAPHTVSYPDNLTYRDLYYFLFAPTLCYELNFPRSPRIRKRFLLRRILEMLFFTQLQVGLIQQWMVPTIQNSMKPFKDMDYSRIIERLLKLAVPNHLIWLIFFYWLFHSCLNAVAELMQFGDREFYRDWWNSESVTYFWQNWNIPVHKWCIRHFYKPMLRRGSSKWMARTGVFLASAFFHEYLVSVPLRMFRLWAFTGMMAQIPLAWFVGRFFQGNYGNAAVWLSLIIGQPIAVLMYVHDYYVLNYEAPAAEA
method: In vitro DGAT-1 inhibition, Assay 4
Format: biochemical
condition-label: Sf9 microsomes 5.6 μg/ml, [14C]decanoylCoA, eight inhibitor concentrations 3 μM to 1 nM; average where n > 1
Listed below: IC50 values for each entry.
# unit: nM | format: bare number

# compound, IC50 / nM
records = [
    ("COc1nc(N)c2c(n1)CCN(c1ccc([C@H]3CC[C@H](CC(=O)O)CC3)cc1)C2=O", 3.59),
]

## Task Query (compound): "CC(C)Oc1nc(N)c2c(n1)CCN(c1ccc([C@H]3CC[C@H](CC(=O)O)CC3)cc1)C2=O" ; field requested: IC50
## Result 142

## Task Which IC50 is reported for this compound? Cc1nc(N)c2c(n1)CC(C)N(c1ccc([C@H]3CC[C@H](CC(=O)O)CC3)cc1)C2=O (stereo partly shown)
## Result 252

## Task Can you share its IC50? I mean this compound: "CCOc1nc(N)c2c(n1)CCN(c1ccc([C@H]3CC[C@H](CC(=O)O)CC3)cc1)C2=O"
## Result 20.7
